# Test system: NF-κB
# EXPERIMENT SUMMARY: NF-κB assay for inflammation (nuclear translocation of NF-κB, immunocytochemistry, PCC)
# EXPERIMENTAL PARAMETERS: HeLa cells, 40 nM, 2 h; PCC between nuclear and cytoplasmic fraction of NF-κB
Could you label it 1 if measured Inflammation (PCC) 40 nM is -0.07 or higher, and -1 otherwise?

1. CC(C)OB(CBr)OC(C)C [diisopropyl(bromomethyl)boronate]: 1
2. CC(=O)c1ccc(B(O)O)s1: 1
3. CCS(=O)(=O)c1ccc(B(O)O)cc1: 1
4. CC(C)(C)Oc1ncc(B(O)O)c(OC(C)(C)C)n1: -1
5. CC(C)(C)OC(=O)n1cccc1B(O)O: 1
6. OB(O)c1cccc2c1oc1ccccc12: -1
7. OB(O)c1ccc2ccccc2c1: 1
8. OB(O)c1ccnc(Cl)c1: -1
9. COc1cccc(OC)c1B(O)O: 1
10. COc1ccc(C#N)cc1B(O)O: -1
11. CN(C)c1ccc(B(O)O)cc1: -1
12. O=C(O)c1cc(B(O)O)cc([N+](=O)[O-])c1: 1
13. O=Cc1sccc1B(O)O: -1
14. OB(O)c1cncc(Br)c1: 1
15. O=Cc1ccoc1B(O)O: 1
16. CCCc1ccc(B(O)O)cc1: -1
17. OB(O)c1cccc(OCc2ccccc2)c1: -1
18. CCOc1ccc(B(O)O)cn1: -1
19. OB(O)c1ccc(Cl)cc1Cl: 1
20. OB(O)c1ccc(-c2ccccc2)s1: 1
21. O=[N+]([O-])/C=C/c1cccc(B(O)O)c1 [3-[(E)-2-nitrovinyl]phenylboronic acid]: 1
22. N#Cc1ccccc1B(O)O: 1
23. N#Cc1cc(B(O)O)ccc1F: 1
24. OB(O)c1cccc(Cl)c1: -1
25. OB(O)c1ccsc1: 1
26. O=Cc1cc(B(O)O)cs1: 1
27. OB(O)c1cc2cc(Br)ccc2s1: 1
28. OB(O)c1cccc2cnccc12: 1
29. OB(O)C1CC1: 1
30. OB(O)c1ccc(O)cc1 [4-hydroxyphenylboronic acid]: 1
31. CCCOc1ccccc1B(O)O: 1
32. CN(C)S(=O)(=O)c1ccccc1B(O)O: -1
33. OB(O)c1cccs1: -1
34. OB(O)c1ccc(Br)nc1: 1
35. O=Cc1ccc(B(O)O)o1: 1
36. C=C(B(O)O)c1ccccc1: -1
37. OB(O)c1c(F)c(F)c(F)c(F)c1F: 1
